target: Cytochrome P450 3A4 (Homo sapiens, UniProt P08684); assay: Inhibition of CYP3A4 in human liver microsomes using midazolam as substrate preincubated for 5 mins followed by NADPH addition and measured after 120 mins by LC-MS/MS analysis; format: ADME, Microsome
Sequence (P08684 whole entry): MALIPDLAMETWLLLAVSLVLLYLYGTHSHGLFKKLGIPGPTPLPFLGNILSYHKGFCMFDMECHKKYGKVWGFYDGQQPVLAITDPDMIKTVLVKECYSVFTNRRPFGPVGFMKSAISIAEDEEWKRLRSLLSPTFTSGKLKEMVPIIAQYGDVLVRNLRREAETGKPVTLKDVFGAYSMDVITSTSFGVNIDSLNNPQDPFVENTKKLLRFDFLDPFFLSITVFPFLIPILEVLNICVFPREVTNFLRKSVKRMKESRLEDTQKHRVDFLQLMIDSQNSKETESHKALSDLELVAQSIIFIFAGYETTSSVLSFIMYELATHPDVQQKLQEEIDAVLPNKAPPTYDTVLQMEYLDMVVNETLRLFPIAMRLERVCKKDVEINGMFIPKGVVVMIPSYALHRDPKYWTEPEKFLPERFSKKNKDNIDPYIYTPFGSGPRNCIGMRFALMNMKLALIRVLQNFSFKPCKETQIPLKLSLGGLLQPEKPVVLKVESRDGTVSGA
measurement.label: pIC50
Note on pIC50: it is the negative log10 of concentration, concentration in mol/L.

# record.smiles, pIC50
records = [
    ("C[C@@H]1COCCN1c1nc(-c2cccc3[nH]ccc23)nc2c1CN(C(=O)c1cccc(S(C)(=O)=O)c1)C2(C)C", 6.00),
]

Proceed to the following item.
Report pIC50 for C[C@@H]1COCCN1c1nc(-c2cccc3[nH]ccc23)nc2c1CN(C(=O)c1ccc3c(c1)OCO3)C2(C)C please. 6.00

====

experiment: MRT (0 to infinity) in Sprague-Dawley rat at 5 mg/kg, po and measured upto 24 hrs by LC-MS analysis; format: ADME, organism-based; conditions: in vivo
Quick reference: MRT inf of the listed items.
Numbers only; they are read as h.

Look over these answered cases.
# record.smiles, measure.unit, MRT inf
data = [
    ("COc1ccc(C(=O)N2Cc3c(N4CCOC[C@H]4C)nc(-c4cccc5[nH]ccc45)nc3C2(C)C)cc1", "h", 11.3),
    ("COc1cccc(C(=O)N2Cc3c(N4CCOC[C@H]4C)nc(-c4cccc5[nH]ccc45)nc3C2(C)C)c1", "h", 3.08),
    ("C[C@@H]1COCCN1c1nc(-c2cccc3[nH]ccc23)nc2c1CN(C(=O)c1cccc(S(C)(=O)=O)c1)C2(C)C", "h", 4.26),
    ("C[C@@H]1COCCN1c1nc(-c2cccc3[nH]ccc23)nc2c1CN(C(=O)c1ccc(S(C)(=O)=O)cc1)C2(C)C", "h", 7.1),
]

Query molecule follows.
// MRT inf lookup, key: C[C@@H]1COCCN1c1nc(-c2cccc3[nH]ccc23)nc2c1CN(C(=O)c1ccc3c(c1)OCO3)C2(C)C 4.21

====

Entries and their measured pIC50 follow.
test system: OVCAR-3; assay: Antiproliferative activity against ATM-deficient human OVCAR-3 cells assessed as reduction in cell viability incubated for 3 days by MTT assay; format: functional, cell-based; conditions: OVCAR-3, 72 h
// scale note: pIC50 = -log10(conc_M); give the bare number

Some compounds with known pIC50 results, for comparison:
# record.smiles, system.name, pIC50
records = [
    ("C[C@@H]1COCCN1c1nc(-c2cccc3[nH]ccc23)nc2c1CN(C(=O)c1ccc3c(c1)OCO3)C2(C)C", "OVCAR-3", 6.90),
    ("C[C@@H]1COCCN1c1nc(-c2cccc3[nH]ccc23)nc2c1CN(C(=O)c1cccc(S(C)(=O)=O)c1)C2(C)C", "OVCAR-3", 7.01),
]

Could you now consider this next compound?
Query (compound): C[C@@H]1COCCN1c1cc(C2(S(C)(=O)=O)CC2)nc(-c2cccc3[nH]ccc23)n1 ; field requested: pIC50 6.25

====

system: HCT-116; assay: Synergistic antiproliferative activity against ATM-proficient human HCT-116 cells assessed as reduction in cell viability incubated for 3 days in presence of cisplatin by MTT assay; type: functional, cell-based; settings: HCT-116, 72 h
IC50 listing for selected molecules.
Write down the numeric answer in nM and omit the unit.

A selection of reference data follows.
# record.smiles, measure.unit, value.reported
data = [
    ("C[C@@H]1COCCN1c1nc(-c2cccc3[nH]ccc23)nc2c1CN(C(=O)c1cccc(S(C)(=O)=O)c1)C2(C)C", "nM", 24),
    ("C[C@@H]1COCCN1c1nc(-c2cccc3[nH]ccc23)nc2c1CN(C(=O)c1ccc3c(c1)OCO3)C2(C)C", "nM", 93),
]

Proceeding to the next molecule to report its IC50.
Dear colleague, I am looking for the recorded IC50 of the following molecule: C[C@@H]1COCCN1c1cc(C2(S(C)(=O)=O)CC2)nc(-c2cccc3[nH]ccc23)n1 137
